test: gradient 5% acetonitrile 3 min, to 50% in 2 min, to 85% in 15 min, held 3 min, 100 µL/min; settings: column: Zorbax Extend-C18 2.1 x 50 mm; eluents: water / acetonitrile, 0.1% formic acid
measuredParameter: RP-LC retention time

query: Which RP-LC retention time value is on record for CCn1ccc2c(cc(C(=O)Nc3ccc(C(C)C)cc3)n2C)c1=O ?
result: 902 s

query: Subsequent entry: CN(C)CCNc1ncnc2c1cnn2-c1cccc(Cl)c1
result: 648 s

query: Subsequent entry: COc1ccccc1-c1nc(Cn2ccnc2)no1
result: 580 s

query: Subsequent entry: COCCC1(NC(=O)c2ccoc2)CCN(CC2CC2)CC1
result: 581 s

query: Subsequent entry: O=C1COc2cc(Cl)ccc2N1Cc1nc(-c2ccccc2)no1
result: 1060 s

query: Subsequent entry: O=C(CCc1nc(-c2cccnc2)no1)NCCc1c[nH]c2ccccc12
result: 709 s

query: Subsequent entry: O=C(C1=CN(c2ccc(F)c(F)c2)c2cc(Cl)ccc2S1(=O)=O)N1CCOCC1
result: 775 s

query: Subsequent entry: Cc1ccc(CNC(=O)c2cc3sc(C)c(CN4CCOCC4)c3[nH]2)o1
result: 656 s

query: Subsequent entry: CCSc1nnc(NC(=O)CCc2c(C)n[nH]c2C)s1
result: 584 s

query: Subsequent entry: Cc1ccc(CN2CCC(N3CC4(CCCCC4)C3c3ccncc3)CC2)o1 (centres undefined)
result: 591 s

query: Subsequent entry: CCC(=O)Nc1ccc(CCc2nc3ccc(C(=O)NC4CCCCCC4)cc3[nH]2)cc1
result: 671 s

query: Subsequent entry: CC1CCCN(CC2CCN(S(=O)(=O)Cc3cc(F)cc(F)c3)CC2)C1 (centres undefined)
result: 666 s

query: Subsequent entry: CNC(=O)c1ccsc1NC(=O)c1coc2ccccc2c1=O
result: 709 s

query: Subsequent entry: O=C(CSc1cc(N2CCCCC2)ncn1)Nc1cccc(C(F)(F)F)c1
result: 1020 s

query: Subsequent entry: CCCN1C(=O)CN(C2CCCCC2)C(=O)C1c1ccc(OC)c(OC)c1 (centres undefined)
result: 777 s

query: Subsequent entry: Cc1nc2cc(N3CCC(C(=O)Nc4ccc5c(c4)OCO5)CC3)cnc2nc1C
result: 695 s

query: Subsequent entry: CC(=O)N1c2ccc(S(=O)(=O)N3CCC(C(=O)Nc4cccc(Cl)c4C)CC3)cc2CC1C (centres undefined)
result: 895 s

query: Subsequent entry: CCOC(=O)c1cnc2nc(C)ccc2c1Nc1cccc(Cl)c1F
result: 764 s

query: Subsequent entry: COc1ccc(CNC(=O)Cn2c(=O)c3c(C(=O)N4CCCCC4)cc(C)nc3n(C)c2=O)cc1
result: 761 s

query: Subsequent entry: COc1cc(=O)c(C(=O)Nc2ccc(S(N)(=O)=O)cc2)nn1-c1ccc(F)cc1
result: 678 s

query: Subsequent entry: O=S(=O)(c1ccc(Cl)s1)N1CC(c2nc(-c3ncccn3)no2)C1
result: 725 s

query: Subsequent entry: CCc1cc(=O)n(CC(=O)Nc2ccc(C)c(Cl)c2)c(N2CCOCC2)n1
result: 871 s

query: Subsequent entry: Cc1sc(-c2cc(C(F)(F)F)[nH]n2)cc1S(=O)(=O)N1CCC(C)CC1
result: 1100 s

query: Subsequent entry: Cc1ccc2oc(SCc3noc(CCC(=O)Nc4nc(-c5ccccc5)cs4)n3)nc2c1
result: 1130 s

query: Subsequent entry: O=C(Nc1ccc(-c2nc3ccccc3o2)cc1)c1ccc(S(=O)(=O)N2CCCC2)cc1
result: 1000 s

query: Subsequent entry: CCCOc1ccc(CNC(=O)c2nc3cccnc3n(CC)c2=O)cc1
result: 918 s

query: Subsequent entry: COCCNC(=O)N1CCCN(C2=NS(=O)(=O)C(c3ccc(C)c(C)c3)=C2C)CC1
result: 738 s

query: Subsequent entry: CN1CCN(C(=O)Nc2ccc([N+](=O)[O-])cc2)CC1
result: 634 s

query: Subsequent entry: CCOc1ccccc1NC(=O)C1CCN(S(=O)(=O)c2cc(-c3noc(C)n3)cs2)CC1
result: 996 s

query: Subsequent entry: CN(C)c1ccc(-c2noc(C3CC(=O)N(c4ccc(F)cc4)C3)n2)cc1 (centres undefined)
result: 994 s

query: Subsequent entry: COc1ccc(CNC(=O)N2CCC(c3nc(C(=O)N4CCOCC4)c(C)o3)CC2)cc1
result: 671 s

query: Subsequent entry: Cc1csc(-c2cc(S(=O)(=O)N3c4ccccc4CC3C)c(C)s2)n1 (centres undefined)
result: 1220 s

query: Subsequent entry: COc1ccccc1CNC(=O)C1CCN(c2nnc3c(Cl)cccn23)CC1
result: 700 s

query: Subsequent entry: CC1CCCCN1CCNC(=O)CN1CCc2ccccc2C1C(=O)N1CCCCC1 (centres undefined)
result: 617 s

query: Subsequent entry: Cc1cc(C)n2c(Nc3c(C)cccc3C)c(-c3ccc(Cl)cc3)nc2n1
result: 815 s

query: Subsequent entry: Cc1nc(C)c(C(=O)N2CCCCCCN(C)C(=O)[C@@H]3CCC[C@@H]32)s1
result: 728 s

query: Subsequent entry: Cc1nn(C(C)C(=O)NCCCN2CCCC2)c(=O)c2nn(-c3ccccc3)c(C)c12 (centres undefined)
result: 614 s

query: Subsequent entry: CCOC(=O)c1ccc(N2C=C(C#N)S(=O)(=O)c3ccccc32)cc1
result: 917 s

query: Subsequent entry: CCN1C(=O)c2cccnc2Sc2cc(CNC(=O)c3cccc(F)c3)ccc21
result: 791 s
